system: HOP-18 NSCLC; test: NCI tumour cell line growth inhibition, 48 h
Measured Quantity: TGI

Before answering, review these 4 worked examples.
{"Compound": "Cc1[nH]c(=O)[nH]c(=O)c1/C=C/C(=O)NC(CO)CS(=O)Cc1ccccc1 (stereo not drawn)", "TGI": "> 300 µM"}
{"Compound": "CCCCNC(=O)C1C(=O)N(CCCC)C(=O)/C1=N\\N (stereo not drawn)", "TGI": "> 100 µM"}
{"Compound": "COc1ccc(NC(=O)CC/C(CC(=O)c2ccco2)=N/NC(N)=S)cc1", "TGI": "> 100 µM"}
{"Compound": "NC1CCCCC1N.O=[Se]([O-])[O-].[Pt+4] (stereo not drawn)", "TGI": "> 100 µM"}

Any idea what its TGI is? The compound is O=C(O)COc1ccc(C(=O)/C(SS/C(C(=O)c2ccc(OCC(=O)O)c(Cl)c2Cl)=C2\C=C(c3ccc(Cl)cc3)SS2)=C2/C=C(c3ccc(Cl)cc3)SS2)c(Cl)c1Cl
23 µM

Any idea what its TGI is? The compound is CC1=CCCC2C1(C)CCC(C)C2(C)Cc1cc(O)ccc1O (stereo not drawn)
36.2 µM

Any idea what its TGI is? The compound is CC[C@@]1(O)C(=O)OCc2c1cc1n(c2=O)Cc2cc3cccc([N+](=O)[O-])c3nc2-1
> 100 µM

Any idea what its TGI is? The compound is OCCCNc1ccnc2cc(Cl)ccc12
> 100 µM

* * *

system: M19-MEL melanoma; test: NCI tumour cell line growth inhibition, 48 h
Measured Quantity: TGI (µM)
All answers are understood in µM, so give the number only.

{"Molecule": "O=[N+]([O-])c1cc([N+](=O)[O-])c(/C=C/c2ccc(Cl)c(Cl)c2)cc1/C=C/c1ccc(Cl)c(Cl)c1", "Tested On": "M19-MEL melanoma", "TGI / µM": 46.1}
{"Molecule": "O=C1C=CC(=O)c2c1ccc1c3ccccc3n(-c3ccccc3)c21", "Tested On": "M19-MEL melanoma", "TGI / µM": 36.1}
{"Molecule": "CCCNCC(=O)O[C@]1(CC)C(=O)OCc2c1cc1n(c2=O)Cc2cc3ccccc3nc2-1", "Tested On": "M19-MEL melanoma", "TGI / µM": 1.96}
{"Molecule": "O=C(c1ccccc1)C(c1ccccc1)C1(O)C(=O)Nc2ccc([N+](=O)[O-])cc21 (stereo unspecified)", "Tested On": "M19-MEL melanoma", "TGI / µM": 72.2}

Next, consider the following molecule.
Any idea what its TGI is? The molecule is CCOC(=O)C(C(=O)OCC)c1ccc([N+](=O)[O-])o1
33.2

* * *

system: MDA-MB-435; experiment: NCI tumour cell line growth inhibition, 48 h
Measured Quantity: TGI (µM)
All answers are understood in µM, so give the number only.

Before answering, review these 2 worked examples.
{"Compound": "Cn1cc(C2=C(c3c4n(c5ccccc35)CCC(CN)C4)C(=O)NC2=O)c2ccccc21 (stereo not given)", "TGI (µM)": 5.97}
{"Compound": "CC1=CCCC2C1(C)CCC(C)C2(C)Cc1cc(O)ccc1O (stereo not given)", "TGI (µM)": 27}

Next, consider the following compound.
Any idea what its TGI is? The compound is COc1ccc(Cn2cc3c(c2-c2ccccc2)CCc2cnoc2-3)cc1OC
0.864
